method: Selectivity index, ratio of CC50 for human MRC5 cells to IC50 for Plasmodium falciparum K1
Type: toxicity
test.conditions: read-out: Ratio CC50/IC50

smiles.record: COC(=O)[C@@H]1c2ccoc2C[C@H]2[C@H]1[C@@H](O)[C@H](O)[C@H]1C(C)(C)CCC[C@]21C
bound.type: >
selectivity ratio: 12
--
smiles.record: CC(=O)O[C@H]1[C@H](O)[C@@H]2[C@H](Cc3occc3[C@@]2(C)O)[C@@]2(C)CCCC(C)(C)[C@H]12
bound.type: =
selectivity ratio: 4.3
--
smiles.record: CC(=O)OC[C@@H]1c2ccoc2C[C@H]2[C@H]1C[C@H](OC(C)=O)[C@H]1C(C)(C)CCC[C@]21C
bound.type: =
selectivity ratio: 1.9

---

Test system: Plasmodium falciparum
method: Antimalarial activity against Plasmodium falciparum K1 infected in human erythrocytes after 72 hrs by lactate dehydrogenase assay
Type: functional, organism-based
test.conditions: K1, 72 h
assay.endpoint: IC50 (µM)

smiles.record: COC(=O)[C@@H]1c2ccoc2C[C@H]2[C@H]1[C@@H](O)[C@H](O)[C@H]1C(C)(C)CCC[C@]21C
assay.endpoint: IC50
unit.spec: µM
bound.type: =
result.value: 22.9

smiles.record: CC(=O)O[C@H]1[C@H](O)[C@@H]2[C@H](Cc3occc3[C@@]2(C)O)[C@@]2(C)CCCC(C)(C)[C@H]12
assay.endpoint: IC50
unit.spec: µM
bound.type: =
result.value: 32.2

smiles.record: C[C@@H]1CC[C@H]2[C@@H](C)C(=O)O[C@@H]3O[C@@]4(C)CC[C@@H]1[C@]32OO4
assay.endpoint: IC50
unit.spec: µM
bound.type: =
result.value: 0.025

smiles.record: CC(=O)OC[C@@]1(C)CCC[C@]2(C)[C@H]3Cc4occc4[C@@](C)(O)[C@@H]3[C@@H](O)[C@H](OC(C)=O)[C@@H]12
assay.endpoint: IC50
unit.spec: µM
bound.type: >
result.value: 28.8

smiles.record: COC(=O)[C@@H]1c2ccoc2C[C@H]2[C@H]1[C@@H](OC(C)=O)[C@H](O)[C@H]1C(C)(C)CCC[C@]21C
assay.endpoint: IC50
unit.spec: µM
bound.type: >
result.value: 30.9

smiles.record: COC(=O)[C@@H]1c2ccoc2C[C@H]2[C@H]1[C@@H](OC(C)=O)[C@@H]1OC(=O)[C@]3(C)CCC[C@@]2(C)[C@@H]13
assay.endpoint: IC50
unit.spec: µM
bound.type: >
result.value: 30

smiles.record: CC(=O)OC[C@@H]1c2ccoc2C[C@H]2[C@H]1C[C@H](OC(C)=O)[C@H]1C(C)(C)CCC[C@]21C
assay.endpoint: IC50
unit.spec: µM
bound.type: =
result.value: 23.5

smiles.record: COC(=O)[C@@H]1c2ccoc2C[C@H]2[C@H]1[C@@H](O)[C@H](OC(C)=O)[C@H]1C(C)(C)CCC[C@]21C
assay.endpoint: IC50
unit.spec: µM
bound.type: >
result.value: 30.9

smiles.record: COC(=O)[C@@H]1c2ccoc2C[C@H]2[C@H]1[C@@H](OC(C)=O)[C@H](O)[C@H]1[C@](C)(COC(C)=O)CCC[C@]21C
assay.endpoint: IC50
unit.spec: µM
bound.type: >
result.value: 27

smiles.record: COC(=O)[C@@H]1c2ccoc2C[C@H]2[C@H]1[C@@H](OC(C)=O)[C@H](O)[C@@H]1[C@]2(C)CCC[C@@]1(C)C(=O)OC
assay.endpoint: IC50
unit.spec: µM
bound.type: >
result.value: 27.9
